condition.description: in n-butanol, 313.35 K
assay.readout: solubility (mole fraction)

{"given.smiles": "CC(N)=S", "observed.value": 0.227}

---

condition.description: in n-propanol, 323.15 K

{"given.smiles": "CC(N)=S", "solubility (mole fraction)": 0.272}

---

condition.description: in ethanol, 302.35 K
assay.readout: solubility (mole fraction)

{"given.smiles": "CC(N)=S", "observed.value": 0.159}

---

condition.description: in n-butanol, 323.15 K

{"given.smiles": "CC(N)=S", "solubility (mole fraction)": 0.321}

---

condition.description: in ethanol, 323.15 K
assay.readout: solubility (mole fraction)

{"given.smiles": "CC(N)=S", "observed.value": 0.274}
